Reported Herbicidal action on Digitaria (damage rating) by item:
system: Monocotyledonous and dicotyledonous test plants; test: Herbicidal action, application pre-emergence (Example B1); type: in vivo; details: 1000 g/ha, Digitaria, scale 10=total damage to plant, 0=no damage to plant, evaluated after 9 or 13 days
Number, no unit, nothing else.

// known answers, use as guide
[[record]]
compound = "Cc1ccccc1CS(=N)(=O)C1=NOC(C)(C)C1 (stereo not drawn)"
target_of_assay = "Monocotyledonous and dicotyledonous test plants"
data_value = 8

[[record]]
compound = "Cn1nc(C(F)(F)F)c(CS(=N)(=O)C2=NOC(C)(C)C2)c1Cl (stereo not drawn)"
target_of_assay = "Monocotyledonous and dicotyledonous test plants"
data_value = 10

[[record]]
compound = "CC1(C)CC(S(=N)(=O)Cc2cc(F)ccc2F)=NO1 (stereo not drawn)"
target_of_assay = "Monocotyledonous and dicotyledonous test plants"
data_value = 9

[[record]]
compound = "CC1(C)CC(S(=N)(=O)C(F)c2ccccc2OC(F)(F)F)=NO1 (mixture of isomers)"
target_of_assay = "Monocotyledonous and dicotyledonous test plants"
data_value = 9

[[record]]
compound = "CC1(C)CC(S(=O)(=NC(=O)C(F)(F)F)C(Cl)c2c(F)cccc2F)=NO1 (stereo not drawn)"
target_of_assay = "Monocotyledonous and dicotyledonous test plants"
data_value = 9

[[record]]
compound = "CC1(C)CC(S(=O)(Cc2c(F)cccc2F)=NC(=O)c2cccnc2Cl)=NO1 (stereo not drawn)"
target_of_assay = "Monocotyledonous and dicotyledonous test plants"
data_value = 9

[[record]]
compound = "CC1(C)CC(S(=O)(Cc2c(F)cccc2F)=NC=O)=NO1 (stereo not drawn)"
target_of_assay = "Monocotyledonous and dicotyledonous test plants"
data_value = 9

[[record]]
compound = "CC1(C)CC(S(=N)(=O)Cc2c(F)cccc2F)=NO1 (stereo not drawn)"
target_of_assay = "Monocotyledonous and dicotyledonous test plants"
data_value = 10


The compound identified as CC(=O)N=S(=O)(Cc1c(F)cccc1F)C1=NOC(C)(C)C1 (stereo not drawn) registered its Herbicidal action on Digitaria (damage rating) at 9

The compound identified as Cc1ccc(F)c(CS(=N)(=O)C2=NOC(C)(C)C2)c1F (stereo not drawn) registered its Herbicidal action on Digitaria (damage rating) at 9

The compound identified as CC1(C)CC(S(=N)(=O)Cc2cc(F)cc3c2OCOC3)=NO1 (stereo not drawn) registered its Herbicidal action on Digitaria (damage rating) at 8
